Each recorded value in this set is attributed to ChEMBL document CHEMBL1145647.

Tested on: Mus musculus
Test: Inhibition of 11-beta-HSD1 in mouse pharmacodynamic model assessed as inhibition of [3H]cortisone to [3H]cortisol at 10 mg/kg, po after 4 hrs
Type: functional
Record True whenever inhibition in vivo at 10 mg/kg is at 20% or higher; record False when lower.

Clc1ccc(C2(c3nnc4n3CCCCCC4)CCC2)cc1	True
Fc1ccc(C2(c3nnc4n3CCCCCC4)CCC2)cc1	True

Query :: Hi team, for `C1C2CC3CC1CC(c1nnc(C4CC4)n1C1CC1)(C2)C3` , is the recorded inhibition in vivo at 10 mg/kg at or above 20%?
Result :: True

Query :: Check the entry `C1CCc2nnc(C34CC5CC(CC(C5)C3)C4)n2CC1` : does inhibition in vivo at 10 mg/kg equal or exceed 20%?
Result :: False

Query :: Please check the record `Cc1ccc(C2(c3nnc4n3CCCCCC4)CCCC2)cc1` and state if its inhibition in vivo at 10 mg/kg is at or above 20%.
Result :: False

* * *

Biological target: 11-beta-hydroxysteroid dehydrogenase 1 (Homo sapiens, UniProt P28845)
Sequence (P28845 whole entry): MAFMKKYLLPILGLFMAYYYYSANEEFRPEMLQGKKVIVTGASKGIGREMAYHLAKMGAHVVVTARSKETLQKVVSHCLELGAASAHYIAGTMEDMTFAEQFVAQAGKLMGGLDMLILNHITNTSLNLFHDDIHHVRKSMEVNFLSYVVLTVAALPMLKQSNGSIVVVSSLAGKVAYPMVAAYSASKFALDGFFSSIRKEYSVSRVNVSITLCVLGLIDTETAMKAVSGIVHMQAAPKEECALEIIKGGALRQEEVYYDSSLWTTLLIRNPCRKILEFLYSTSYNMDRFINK
Catalogue of log10 of IC50 values
Could you please treat all values as log10 of IC50 in nM?

The examples below pair each entry with its known result.
Cc1ccc(C2(c3nnc4n3CCCCCC4)CCCC2)cc1	0.30
Cc1ccc(C2(c3nnc4n3CCCCCC4)CCCCC2)cc1	1.18
Fc1ccc(C2(c3nnc4n3CCCCCC4)CCC2)cc1	0.48
Clc1ccc(C2(c3nnc4n3CCCCCC4)CCC2)cc1	0.00
F[C@H]1C[C@@](c2ccc(Cl)cc2)(c2nnc(C3CC3)n2C2CC2)C1	1.34

# compound `Cc1cccc(C2(c3nnc4n3CCCCCC4)CCC2)c1` ; its log10 of IC50 = 0.30

Record `Fc1ccc(C2(c3nnc4n3CCCCCC4)CCCCC2)cc1` , field log10 of IC50: 1.43

Data point: `Clc1ccc(C2(c3nnc4n3CCCCCC4)CC2)c(Cl)c1` ; log10 of IC50 = 0.30

* * *

System: Mus musculus
Assay: Inhibition of 11-beta-HSD1 in mouse pharmacodynamic model assessed as inhibition of [3H]cortisone to [3H]cortisol at 10 mg/kg, po after 4 hrs
Assay type: functional
measure.name: inhibition in vivo at 10 mg/kg
Answer format reminder: number followed by unit.

Example entries begin here.
Fc1ccc(C2(c3nnc4n3CCCCCC4)CCCC2)cc1	30%
Fc1cccc(C2(c3nnc4n3CCCCCC4)CCC2)c1	68%
C1CCCn2c(nnc2C23CC4CC(CC(C4)C2)C3)CC1	24%
Cc1ccc(C2(c3nnc4n3CCCCCC4)CCC2)cc1	28%
Fc1ccccc1C1(c2nnc3n2CCCCCC3)CCCC1	18%
Cc1cccc(C2(c3nnc4n3CCCCCC4)CCCC2)c1	22%

For record `c1ccc(C2(c3nnc4n3CCCCCC4)CC2)cc1` the listed inhibition in vivo at 10 mg/kg is 45%

Summary for this molecule, `Oc1cccc(C2(c3nnc4n3CCCCCC4)CCCC2)c1` : inhibition in vivo at 10 mg/kg is 21%

* * *

Test: Oral bioavailability in C57B6 mouse at 10 mg/kg
Format: ADME, organism-based
Conditions: in vivo
measure.name: bioavailability (%)
Field format: number, assumed %, no unit text.

Recorded bioavailability (compound `F[C@H]1C[C@](c2ccc(Cl)cc2)(c2nnc(C3CC3)n2C2CC2)C1` ): 100

* * *

Assay: Half life in C57B6 mouse at 10 mg/kg
Type: ADME, organism-based
Parameters: dose 10 mg/kg
Details: in vivo
measure.name: half-life (h)
Number in h, nothing else.

Record `F[C@H]1C[C@](c2ccc(Cl)cc2)(c2nnc(C3CC3)n2C2CC2)C1` , field half-life: 1.5

* * *

Target: 11-beta-hydroxysteroid dehydrogenase type 2 (Mus musculus)
Sequence (P51661 whole entry): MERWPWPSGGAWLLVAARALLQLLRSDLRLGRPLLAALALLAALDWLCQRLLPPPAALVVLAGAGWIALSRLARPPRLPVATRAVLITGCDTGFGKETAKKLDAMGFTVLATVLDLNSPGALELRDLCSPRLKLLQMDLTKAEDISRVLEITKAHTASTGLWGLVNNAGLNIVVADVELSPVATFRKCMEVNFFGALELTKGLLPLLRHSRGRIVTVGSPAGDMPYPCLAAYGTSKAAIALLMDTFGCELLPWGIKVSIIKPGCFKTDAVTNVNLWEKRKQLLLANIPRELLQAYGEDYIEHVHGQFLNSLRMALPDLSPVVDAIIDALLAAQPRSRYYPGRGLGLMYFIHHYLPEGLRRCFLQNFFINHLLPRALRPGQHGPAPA
pIC50: −log10 of the molar value.
Recorded pIC50, one value per entry.

// below: answered compounds
Fc1ccccc1C1(c2nnc3n2CCCCCC3)CCCC1	< 5.40
Cc1ccc(C2(c3nnc4n3CCCCCC4)CCC2)cc1	< 5.40

Form: compound = `c1ccc(C2(c3nnc4n3CCCCCC4)CC2)cc1` ; pIC50 = < 5.40

* * *

Target sequence: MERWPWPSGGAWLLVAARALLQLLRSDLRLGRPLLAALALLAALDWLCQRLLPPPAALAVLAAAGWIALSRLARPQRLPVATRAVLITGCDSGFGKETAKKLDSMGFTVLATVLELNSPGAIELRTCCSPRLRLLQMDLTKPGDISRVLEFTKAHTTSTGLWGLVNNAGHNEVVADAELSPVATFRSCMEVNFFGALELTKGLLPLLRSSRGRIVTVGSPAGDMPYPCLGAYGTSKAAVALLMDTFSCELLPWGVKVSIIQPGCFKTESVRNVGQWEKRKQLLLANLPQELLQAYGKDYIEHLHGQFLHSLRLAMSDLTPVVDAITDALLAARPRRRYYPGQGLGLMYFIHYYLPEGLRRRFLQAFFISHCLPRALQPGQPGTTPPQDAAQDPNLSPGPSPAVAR
measure.name: pIC50
Answer as the number alone; pIC50 is minus log10 of concentration in mol/L.

Below: 3 compounds and their reported pIC50.
c1ccc(C2(c3nnc4n3CCCCCC4)CCC2)cc1	5.40
Cc1ccc(C2(c3nnc4n3CCCCCC4)CCC2)cc1	5.70
c1ccc(C2(c3nnc4n3CCCCCC4)CCCCC2)cc1	5.98

pIC50 in this record for `Fc1ccccc1C1(c2nnc3n2CCCCCC3)CCCC1` : 5.90

Recorded result, `Clc1ccc(C2(c3nnc4n3CCCCCC4)CC2)c(Cl)c1` , pIC50: 5.71

Per the record, `Cc1cccc(C2(c3nnc4n3CCCCCC4)CCCC2)c1` has pIC50 of 5.71

* * *

This document collects IC50 values reported for 11-beta-hydroxysteroid dehydrogenase 1 (Mus musculus, UniProt P50172).
Just the number please, in nM, no unit attached.

Cc1ccc(C2(c3nnc4n3CCCCCC4)CCCCC2)cc1	374
Fc1ccc(C2(c3nnc4n3CCCCCC4)CCC2)cc1	37
Cc1cccc(C2(c3nnc4n3CCCCCC4)CCCC2)c1	57
Clc1ccc(C2(c3nnc4n3CCCCCC4)CC2)cc1	230

IC50 value, target or system 11-beta-hydroxysteroid dehydrogenase 1 (Mus musculus, UniProt P50172), for `Fc1ccccc1C1(c2nnc3n2CCCCCC3)CCC1` : 16

Let me check: `c1ccc(C2(c3nnc4n3CCCCCC4)CCCCC2)cc1` , system 11-beta-hydroxysteroid dehydrogenase 1 (Mus musculus, UniProt P50172), measured IC50 is 100

Noted IC50 for `Oc1cccc(C2(c3nnc4n3CCCCCC4)CCCC2)c1` , tested on 11-beta-hydroxysteroid dehydrogenase 1 (Mus musculus, UniProt P50172): 61

GET /values?item= `Fc1cccc(C2(c3nnc4n3CCCCCC4)CCC2)c1` &system= 11-beta-hydroxysteroid dehydrogenase 1 (Mus musculus, UniProt P50172) returns IC50: 19

Per the reported 11-beta-hydroxysteroid dehydrogenase 1 (Mus musculus, UniProt P50172) data, `Clc1ccc(C2(c3nnc4n3CCCCCC4)CCCC2)cc1` has IC50 of 41

* * *

This listing pairs compounds with measured inhibition in vivo at 10 mg/kg.
Tested on: Mus musculus
Assay: Inhibition of 11-beta-HSD1 in mouse pharmacodynamic model assessed as inhibition of [3H]cortisone to [3H]cortisol at 10 mg/kg, po after 4 hrs
Format: functional
Give just the numeric value; % need not be written.

F[C@H]1C[C@](c2ccc(Cl)cc2)(c2nnc(C3CC3)n2C2CC2)C1	91

Value of measured inhibition in vivo at 10 mg/kg for the entry `Cc1cccc(C2(c3nnc4n3CCCCCC4)CCC2)c1` : 22

// recorded inhibition in vivo at 10 mg/kg for `c1ccc(C2(c3nnc4n3CCCCCC4)CCCC2)cc1` : 37

Per the record, `c1ccc(C2(c3nnc4n3CCCCCC4)CCCCC2)cc1` has inhibition in vivo at 10 mg/kg of 0

// recorded inhibition in vivo at 10 mg/kg for `c1ccc(C2(c3nnc4n3CCCCCC4)CCC2)cc1` : 72

# inhibition in vivo at 10 mg/kg (compound: `Cc1ccccc1C1(c2nnc3n2CCCCCC3)CCC1` ) is 21

Sample `Fc1ccccc1C1(c2nnc3n2CCCCCC3)CCC1` ; inhibition in vivo at 10 mg/kg observed: 53
